protocol.summary: Volume of distribution in rat at 15 mg/kg, po or 5 mg/kg, iv
Type: ADME, organism-based
run.parameters: in vivo
measured.property: Vd (L/kg)
Respond with the bare value in L/kg.

According to the records, this compound COc1cnc(O[C@@H]2C[C@H]3C(=O)N[C@]4(C(=O)NS(=O)(=O)C5CC5)C[C@H]4/C=C\CC[C@@H](C)C[C@@H](C)[C@H](NC(=O)OC(C)(C)C(F)(F)F)C(=O)N3C2)c2ccccc12 displays Vd of 0.58

====

Recorded concentration at 24 h values for a group of molecules are listed next.
protocol.summary: Drug concentration in rat liver at 5 mg/kg, po measured upto 24 hrs
Assay type: ADME, organism-based
run.parameters: read-out: Ct
Respond with the bare value in µM.

Consider the following illustrative entries.
smi	concentration at 24 h [µM]
CC[C@@H]1C[C@H](C)CC/C=C\[C@@H]2C[C@@]2(C(=O)NS(=O)(=O)C2(C)CC2)NC(=O)[C@@H]2C[C@@H](Oc3ncc(OC)c4ccc(F)cc34)CN2C(=O)[C@H]1NC(=O)OC(C)(C)C(F)(F)F	2.07
[2H]C([2H])([2H])Oc1cc2ccnc(O[C@@H]3C[C@H]4C(=O)N[C@]5(C(=O)NS(=O)(=O)C6(C)CC6)C[C@H]5/C=C\CC[C@@H](C)C[C@@H](CC)[C@H](NC(=O)OC(C)(C)C(F)(F)F)C(=O)N4C3)c2cc1F	4.16
COc1cnc(O[C@@H]2C[C@H]3C(=O)N[C@]4(C(=O)NS(=O)(=O)C5(C)CC5)C[C@H]4/C=C\CC[C@@H](C)C[C@@H](C)[C@H](NC(=O)OC(C)(C)C(F)(F)F)C(=O)N3C2)c2ccccc12	5.74

From here, focus on the item given below.
According to the records, this molecule CC[C@@H]1C[C@H](C)CC/C=C\[C@@H]2C[C@@]2(C(=O)NS(=O)(=O)C2(C)CC2)NC(=O)[C@@H]2C[C@@H](Oc3nccc4cc(OC)c(F)cc34)CN2C(=O)[C@H]1NC(=O)OC(C)(C)C(F)(F)F displays concentration at 24 h of 5.83

====

protocol.summary: Inhibition of recombinant full length NS3/4A protease in Hepatitis C virus subtype 2a replicon infected in human HuH7 cells preincubated for 3 days followed by substrate addition and measured after 2 hrs by renilla luciferase reporter gene assay
Assay type: cell-based
run.parameters: Huh-7
Hi! Just check whether EC50 is below 2 nM. Below gives t, equal or above gives f.

Example entries and their recorded answers appear below.
smi	group.label
[2H]C([2H])([2H])Oc1cc2ccnc(O[C@@H]3C[C@H]4C(=O)N[C@]5(C(=O)NS(=O)(=O)C6(C)CC6)C[C@H]5/C=C\CC[C@@H](C)C[C@@H](CC)[C@H](NC(=O)OC(C)(C)C(F)(F)F)C(=O)N4C3)c2cc1F	t
C[C@@H]1CC/C=C\[C@@H]2C[C@@]2(C(=O)NS(=O)(=O)C2CC2)NC(=O)[C@@H]2C[C@@H](Oc3nccc4ccc(F)cc34)CN2C(=O)[C@@H](NC(=O)OC(C)(C)C(F)(F)F)[C@H](C)C1	f
CC[C@@H]1C[C@H](C)CC/C=C\[C@@H]2C[C@@]2(C(=O)NS(=O)(=O)C2(C)CC2)NC(=O)[C@@H]2C[C@@H](Oc3nccc4cc(O)c(F)cc34)CN2C(=O)[C@H]1NC(=O)OC(C)(C)C(F)(F)F	t
CC[C@@H]1CCCC/C=C\[C@@H]2C[C@@]2(C(=O)NS(=O)(=O)C2CC2)NC(=O)[C@@H]2C[C@@H](Oc3ncc(OC)c4ccc(Cl)cc34)CN2C(=O)[C@H]1NC(=O)OC(C)(C)C(F)(F)F	f

Given CC[C@@H]1C[C@H](C)CC/C=C\[C@@H]2C[C@@]2(C(=O)NS(=O)(=O)C2CC2)NC(=O)[C@@H]2C[C@@H](Oc3ncc(OC)c4ccccc34)CN2C(=O)[C@H]1NC(=O)OC(C)(C)C , is recorded EC50 strictly lower than 2 nM?
f

Given C=C[C@@H]1C[C@]1(NC(=O)[C@@H]1C[C@@H](Oc2ncc(OC)c3ccc(Cl)cc23)CN1C(=O)[C@@H](NC(=O)OC(C)(C)C)C(C)(C)C)C(=O)NS(=O)(=O)C1CC1 , is recorded EC50 strictly lower than 2 nM?
f

Given [2H]C([2H])([2H])Oc1cnc(O[C@@H]2C[C@H]3C(=O)N[C@]4(C(=O)NS(=O)(=O)C5(C)CC5)C[C@H]4/C=C\CC[C@@H](C)C[C@@H](C)[C@H](NC(=O)OC(C)(C)C(F)(F)F)C(=O)N3C2)c2ccccc12 , is recorded EC50 strictly lower than 2 nM?
t

Given COc1cnc(O[C@@H]2C[C@H]3C(=O)N[C@]4(C(=O)NS(=O)(=O)C5CC5)C[C@H]4/C=C\CC[C@@H](C)C[C@@H](C)[C@H](NC(=O)OC(C)(C)C)C(=O)N3C2)c2cc(Cl)ccc12 , is recorded EC50 strictly lower than 2 nM?
t
